Hi there, I'd appreciate the recorded growth for every entry that follows.
Test system: OVCAR-3 ovarian
Experiment: NCI-60 one-dose screen, 48 h (100 = growth as untreated, 0 = no growth, -100 = all killed)
Conditions: 10 µM unless noted
Compounds without any hit were thinned out: in the full panel of roughly 83,000, 20% have a hit.
Note: unit % is implicit; provide only the numeric part.

Reported growth for CCOC(=O)C1=C(C)NC(=S)NC1c1ccccc1 (stereo unspecified) : what is it?
110

Reported growth for COC(=O)CSc1ccc(Cl)cc1 : what is it?
122

Reported growth for CCN(CC)CCNC(=O)C(F)(F)C(F)(F)C(F)(F)F : what is it?
109

Reported growth for O=C(CC(=O)c1cccc(Cl)c1)c1cccc(Cl)c1 : what is it?
32

Reported growth for COc1cccc(C2C(C#N)=C(N)Oc3cc4c(cc32)OCO4)c1 (stereo unspecified) : what is it?
-38.6

Reported growth for O=[N+]([O-])c1ccc(N=Nc2c(NNc3ccc([N+](=O)[O-])cn3)cc(S(=O)(=O)O)c3ccccc23)nc1 : what is it?
-5.33

###

Test system: SW-620 colon
Assay: NCI-60 one-dose screen, 48 h
Details: 10 µM unless noted
About 83,000 compounds went through this panel and 20% of them were active in at least one assay; those are over-represented in the sample as a whole. Active and inactive are the calls of the source. The calls were made as follows: active = growth percent below 10; inactive = the rest.
Pick one and only one: active, inactive

# lookup: test call for Cc1ccc(Nc2cccc3ccccc23)cc1
inactive

# lookup: test call for CCCCCN(CCCCC)C(=O)C(CCC(=O)O)NC(=O)c1ccc(Cl)c(Cl)c1 (stereo not given)
inactive

# lookup: test call for CCOC(=O)C1C(=O)C=C(c2ccccc2)CC1c1sc(N(C)Cc2ccccc2)nc1Cl (stereo not given)
inactive

# lookup: test call for CC[C@H](C)[C@H](N)C(=O)O
inactive

# lookup: test call for COc1cc(/C=C2\CN(C(=O)OC(C)(C)C)C/C(=C\c3ccc(O)c(OC)c3)C2=O)ccc1O
inactive

# lookup: test call for Nc1nc(NC2CC2)cc(-c2cccc(Cl)c2Cl)n1
inactive

# lookup: test call for CC(C)c1ccc2c(c1)CCC1C2CCCC1(C)NCc1ccccc1 (stereo not given)
active

# lookup: test call for CC(C)[C@@]12C[C@@H](OC(=O)C3CO3)[C@@](C)(O1)[C@@H]1CC[C@@H](C)[C@H]1[C@@H]2OC(=O)/C=C/c1ccccc1 (stereo not given in full)
inactive

# lookup: test call for Cc1cc(-c2ccc(N=Nc3c(S(=O)(=O)O)cc4cc(S(=O)(=O)O)cc(O)c4c3O)c(C)c2)ccc1N=Nc1c(S(=O)(=O)O)cc2cc(S(=O)(=O)O)cc(O)c2c1O
inactive

# lookup: test call for c1csc(-c2cnc3nonc3n2)c1
inactive

###

Tested on: PC-3 prostate
Assay: NCI-60 one-dose screen, 48 h
Conditions: 10 µM unless noted
About 83,000 compounds went through this panel and 20% of them were active in at least one assay; those are over-represented in the sample as a whole. Active and inactive are the calls of the source. Rule for the calls: active = growth percent below 10; inactive = the rest.
Pick one and only one: yes (active), no (inactive)

# lookup: test call for Nc1c(C(=O)Nc2cccc(Cl)c2)sc2nc3c(cc12)C(=O)CCC3
no

# lookup: test call for CNC1=C([N+](=O)[O-])C(c2ccccc2O)C(C#N)=C(c2cccs2)O1 (configuration not stated)
no

# lookup: test call for COc1ccc(C(=O)O)cc1.[Ag]
no

# lookup: test call for CCC(=O)NC1=C(Cl)C(=O)C(NC(=O)CC)=C(Cl)C1=O
no

# lookup: test call for NC(CCC(=O)NC(CS)C(=O)NCC(=O)O)C(=O)O (configuration not stated)
no

# lookup: test call for Cc1ccc(NC(=O)c2cc(NCc3cc(O)ccc3O)ccc2O)cc1
no

# lookup: test call for O=C1Nc2ccc(Br)cc2/C1=N/c1nc(-c2ccccc2)cs1
no

# lookup: test call for c1cc(C2CCCCC2)ccc1-c1cnc2nonc2n1
no

# lookup: test call for N=C(N)c1ccc(-c2ccc(-c3ccco3)o2)cc1F
no

# lookup: test call for FC(F)(F)c1nn[nH]n1
no

# lookup: test call for C=C1C(=O)O[C@H]2[C@H]1CC/C(COC(=O)NCc1ccc(Cn3c(=O)sn(CCCl)c3=O)cc1)=C\CC[C@@]1(C)O[C@@H]21
no

# lookup: test call for C=C[C@H]1CCC/C=C/[C@@H]2C[C@H](O)C[C@H]2[C@H](O)/C=C/C(=O)O1
no

# lookup: test call for O=C(Nc1ccc(-n2ccc3c(NC(=O)c4ccccc4)nccc32)cc1)c1ccc(N2CCOCC2)c(C(F)(F)F)c1
no

# lookup: test call for Cc1ccc([C@H]2c3[nH]c4ccccc4c3C[C@H]3C(=O)N(CCCCCCC(=O)NO)CC(=O)N23)cc1
no

# lookup: test call for COc1cccc(-c2nc3sccn3c2-c2ccnc(NCCN3CCCN(C)S3(=O)=O)n2)c1
no

# lookup: test call for O=C1/C(=C/N2N=C(c3ccc(Cl)cc3)CC2c2ccccc2O)SC(=S)N1c1cccc(C(F)(F)F)c1 (configuration not stated)
no

# lookup: test call for CS(=O)(=O)c1ccc(C(=O)N/N=C/c2ccccc2O)cc1
no

# lookup: test call for O=C(N/N=C/c1ccc([N+](=O)[O-])cc1)c1ccccc1Nc1ccnc(C(F)(F)F)c1
no

# lookup: test call for COc1cc2c(cc1OC)-c1cc(OC)c(OC)cc1C(CN(C)C)C2 (configuration not stated)
no

# lookup: test call for O=C(Nc1cccc(-n2ccc3c(NC(=O)c4ccccc4)nccc32)c1)c1ccc(Cl)c(Cl)c1
yes

# lookup: test call for Clc1cc2nc(-c3ccccc3)c(-c3ccccc3)nc2cc1Cl
no

# lookup: test call for Cc1ccc(NC(=O)c2sc3nc4c(cc3c2N)C(=O)CCC4)cc1Cl
no

# lookup: test call for CC1=CCC2C1CC=C(C)C(CC[C@H]1[C@@](C)(O)CCC3OC(C)(C)[C@H](OC(=O)c4ccccc4)CC[C@@]31C)C2(C)C (some centres not stated)
no

# lookup: test call for CCOC(=O)c1cc(C(=O)OCC)c(C)nc1C
no

# lookup: test call for CN(C)CC(=O)c1ccc2cc(Br)c3ccccc3c2c1
no

# lookup: test call for COc1cc(C)c(Cl)cc1C1=NN(c2ccc(S(N)(=O)=O)cc2)C(/C=C/c2ccccc2)C1 (configuration not stated)
yes

# lookup: test call for NC(=O)N/N=C\c1ccc([N+](=O)[O-])o1
no

# lookup: test call for Cc1csc(N/N=C/c2ccncc2)n1
no

# lookup: test call for Nc1c(C(=O)C[C@@H](N)CO)ccc2c1C(=O)CCO2
no

# lookup: test call for CCN(CCC#N)c1ccccc1
no

# lookup: test call for O=S(=O)(Cc1ccc(Cl)cc1Cl)c1ccc(Cl)cc1
no

# lookup: test call for Nc1c(N)c2ccccc2c2ccccc12
no

# lookup: test call for Clc1cc(Cl)cc(-c2cnc3nonc3n2)c1
no

# lookup: test call for CCN(C(=O)CCl)C(C)(C)C(SSSC(c1ccc(Cl)cc1)C(C)(C)N(CC)C(=O)CCl)c1ccc(Cl)cc1 (configuration not stated)
no

# lookup: test call for O=C1N(Cc2ccccc2Cl)c2ccccc2C12NN=C(c1ccccc1)S2 (configuration not stated)
no

# lookup: test call for Cn1cnc([N+](=O)[O-])c1S(=O)(=O)Oc1cccc2ccccc12
no

# lookup: test call for NC(=O)c1ccc[n+](Cc2ccccc2)c1
no

# lookup: test call for NC(N)=N/N=C/c1cccc(Cl)c1Cl
no

# lookup: test call for COc1ccc(C(=O)OC2C(OC3C(O)COC(O[C@H]4C[C@H]5[C@@H]6CC=C7C[C@@H](O)CC[C@]7(C)[C@H]6CC[C@]5(C)[C@H]4[C@H](C)C(=O)CCC(C)C)C3OC(C)=O)OCC(O)C2O)cc1 (some centres not stated)
yes

# lookup: test call for CCCCCCCCCCCCCCCC1=NC(C)(C)CN1C(C)C
yes

# lookup: test call for CC(C)c1cccc(C#N)c1
no

# lookup: test call for CCOC(=O)C1C(=O)C=C(c2cc(OC)c(OC)c(OC)c2)CC1c1sc(N(C)Cc2ccccc2)nc1Cl (configuration not stated)
no
